Subject of test: T1, cell surface ULBP6_01 on COV644 cells (human, UniProt Q5VY80 27-218)
T1 construct: whole, on cells; also called cell surface ULBP6 (COV644)
T1 chain: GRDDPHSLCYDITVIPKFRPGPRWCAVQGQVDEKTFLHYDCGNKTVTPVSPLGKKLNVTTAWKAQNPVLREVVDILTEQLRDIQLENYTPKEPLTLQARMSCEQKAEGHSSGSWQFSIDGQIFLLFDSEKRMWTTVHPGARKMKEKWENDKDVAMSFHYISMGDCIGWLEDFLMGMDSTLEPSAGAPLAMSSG
Protocol summary: flow cytometry; blocking of hNKG2D-mFc binding to COV644 cells, average of 2 replicates
Endpoint name: pIC50
// pIC50 here means minus log10 of the molar concentration (mol/L)

INPUT: Given humanized 8E11 (h8E11), Fc version not stated (antibody, V domains shown, Recombinant humanized antibody, hIgG1 backbone with kappa light chain; also called PUR3926) VH: EVQLVESGGGLVQPGGSLRLSCAASGFTFRTYGMHWVRQAPGKGLEWVAYISSGSGTIDYADTVKGRFTISRDNAKNSLYLQMNSLRAEDTAVYYCTRQTGAMDYWGQGTLVTVSS VL: EIVLTQSPATLSLSPGERATLSCSASSSVSYMNWYQQKPGQSPRLWIYGISNLASGVPARFSGSGSGTDFTLTISSLEPEDFAVYYCQQRSSHPLTFGGGTKVEIK , respond with its pIC50.
OUTPUT: 9.96
